// data source = PubChem BioAssay AID802

Give inhibition for every item shown.
assay: inhibitors of TNFa-induced VCAM1 expression, primary screen, imaging, HUVEC, TNFa stimulus, immunofluorescence (AID 802); conditions: HUVEC TNFa-induced VCAM-1 immunofluorescence, high-content imaging; at 2 µM; hits give high values;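 also: 0% = TNF-stimulated DMSO wells and 100% = unstimulated control wells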
Screen size: about 95,000 compounds; about 460 (0.48%) were called active. This excerpt belongs to a sample that is enriched for actives.
Use % as the unit, but write only the number.

Any idea what its inhibition is? The compound is `O=C(Nc1ccn(Cc2ccccc2F)n1)c1ccc(COc2ccc(Cl)cc2Cl)o1` 4.3

Any idea what its inhibition is? The compound is `Cc1ccc(-n2ncc3c(Nc4cccc(C(=O)O)c4)ncnc32)cc1` -17

Any idea what its inhibition is? The compound is `COCCn1c(SCc2nnc(-c3ccc(OC)c(OC)c3)o2)nc2sc3c(c2c1=O)CCC3` -4.9

Any idea what its inhibition is? The compound is `Cc1cc(C(F)F)n2nc(C(=O)Nc3ccc(S(=O)(=O)NC45CC6CC(CC(C6)C4)C5)cc3)nc2n1` 5.2

Any idea what its inhibition is? The compound is `Cc1cc(NC(=O)CS(=O)(=O)c2cn(C)c3ccccc23)no1` 28.9

Any idea what its inhibition is? The compound is O=C(NC1(C(F)(F)F)NC(=O)N(Cc2cccnc2)C1=O)c1ccccc1Cl (stereo not drawn) 8.4

Any idea what its inhibition is? The compound is `O=C(N/N=C\c1ccc(-c2ccc(Cl)c(Cl)c2)o1)C(=O)N1CCCC1` -4.3

Any idea what its inhibition is? The compound is `Cc1ccc(-c2csc(NC(=O)Cc3cccs3)n2)cc1C` 1.5

Any idea what its inhibition is? The compound is `O=C(Nc1ccccc1)c1ccc2nsnc2c1` -11.1

Any idea what its inhibition is? The compound is `O=C(CS(=O)(=O)c1cn(Cc2cccc(F)c2)c2ccccc12)N1CCCCC1` 50.1

Any idea what its inhibition is? The compound is `Cc1c(NC(=O)/C=C/C(=O)O)cccc1[N+](=O)[O-]` 3.3

Any idea what its inhibition is? The compound is `Cc1ccc(-c2nn(C(C)(C)C)c3ncnc(N)c23)cc1` 40.8

Any idea what its inhibition is? The compound is `COc1ccccc1CNC(=O)c1ccc(SC)cc1OC` 18.6

Any idea what its inhibition is? The compound is `COc1ccc(CCNC(=O)CSc2nnc(-c3cccc(F)c3)o2)cc1OC` 11.2

Any idea what its inhibition is? The compound is `CCOC(=O)c1c(NC(=S)Nc2ccccc2)sc2c1CCN(C)C2` 12.8

Any idea what its inhibition is? The compound is `COc1cc(NS(=O)(=O)c2ccc(N/C=C(\C=O)c3nc4cc(Cl)ccc4o3)cc2)nc(OC)n1` -2.6

Any idea what its inhibition is? The compound is `O=C(O)c1ccccc1-c1ccccc1C(=O)Nc1cccc2ccccc12` 7.4

Any idea what its inhibition is? The compound is `C/C(=C\C(=O)c1ccccc1)Nc1cccc(O)c1` -2.3

Any idea what its inhibition is? The compound is `Cc1ccc(Nc2nc(C)cc(C)c2C(N)=O)cc1` 7.1

Any idea what its inhibition is? The compound is `Cc1ccccc1N1CCN(CCCOc2ccc3c(C)cc(=O)oc3c2)CC1` -7.7

Any idea what its inhibition is? The compound is `CCOc1ccc(NC(=O)CCS(=O)(=O)c2ccc3c(c2)CCCN3C(=O)CC)cc1` 0.8

Any idea what its inhibition is? The compound is `CCOc1ccccc1NC(=O)c1cccnc1` -0.4

Any idea what its inhibition is? The compound is `CCOc1ccccc1N=C1NC(=O)CS1` -6.9

Any idea what its inhibition is? The compound is CCOC(=O)N1CCN(C(c2cccnc2)c2ccc3cccnc3c2O)CC1 (stereo not drawn) 9.9

Any idea what its inhibition is? The compound is CC(CNC(=O)c1ccc(Br)o1)NC(=O)c1ccc(Br)o1 (stereo not drawn) -12.4

Any idea what its inhibition is? The compound is CCOc1ccc(-n2c(N)c(C(=O)NCC3CCCO3)sc2=S)cc1 (stereo not drawn) -3.3

Any idea what its inhibition is? The compound is `CCOC(=O)C(=O)Nc1nc(-c2ccccc2)c(CC)s1` 4.9

Any idea what its inhibition is? The compound is `O=C(/C=C/c1ccco1)Nc1cccc(-c2nc3ccccc3[nH]2)c1` 9.8

Any idea what its inhibition is? The compound is `CSCc1cc(N2CCOCC2)nc(SCc2ccc(Cl)cc2Cl)n1` 5.1

Any idea what its inhibition is? The compound is `CSc1nc(N(C)NC(=O)c2cccc(C)c2)c2ccccc2n1` 83.3

Any idea what its inhibition is? The compound is CCCSC(=S)NC1CCS(=O)(=O)C1 (stereo not drawn) 4.3

Any idea what its inhibition is? The compound is `S=C(NCc1cccs1)Nc1ccc(Cl)cc1` -27.9

Any idea what its inhibition is? The compound is `Oc1ccccc1/C=N/n1c(-c2cccs2)n[nH]c1=S` -7.1

Any idea what its inhibition is? The compound is `COc1cccc(-c2nnc(SCCOc3ccc4c(C)cc(=O)oc4c3)o2)c1` 0.7

Any idea what its inhibition is? The compound is `CS(=O)(=O)c1sc2nc(-c3ccccc3)cc(-c3ccccc3)c2c1N` -20.3

Any idea what its inhibition is? The compound is `CCOC(=O)C1(S(=O)(=O)c2ccccc2)CCN(Cc2ccccc2)CC1` -5.9

Any idea what its inhibition is? The compound is `Cc1ccc2nc(SCc3nnc(-c4ccccc4[N+](=O)[O-])o3)c(C#N)cc2c1` 6

Any idea what its inhibition is? The compound is `O=C(Nc1ccc(-c2nnc(-c3ccccc3)o2)cc1)c1ccc(Br)o1` -17.2

====

test: inhibitors of TNFa-induced VCAM1 expression, primary screen, imaging, HUVEC, TNFa stimulus, immunofluorescence (AID 802); details: HUVEC TNFa-induced VCAM-1 immunofluorescence, high-content imaging; at 2 µM;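 also: 0% = TNF-stimulated DMSO wells and 100% = unstimulated control wells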
The campaign covered roughly 95,000 compounds. About 460 (0.48%) were called active.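 How the source made its calls: active means inhibition above the batch mean plus 3 SD, with images confirmed as a hit by eye (cut at about 37% in these data); inconclusive means inhibition above that limit but hit not confirmed in images; inactive means inhibition not above that limit.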 This is one part of a sample in which actives are shown more often than they occur.
The reply should name one outcome from active, inactive

What classification did `Cc1cc2cc(CNC(=O)c3cccs3)ccc2[nH]1` end up with in this test? inactive

What classification did COC(=O)C1C(=O)c2c([nH]c(C(=O)OCCSC)c2C)CC1C (configuration not stated) end up with in this test? inactive

What classification did `CCc1ccc(/C=N/NC(=O)c2ccc(OC3CCCC3)cc2)s1` end up with in this test? inactive

What classification did `C=CCn1c(N)c(C(=O)OCC(C)C)c2nc3ccccc3nc21` end up with in this test? active

What classification did `CCN(CC)S(=O)(=O)c1ccc2c3c(cccc13)C(=O)S2` end up with in this test? inactive

What classification did `Cc1ccc(/C=N/NC(=O)c2sccc2OCc2ccc(F)cc2)cc1` end up with in this test? inactive

What classification did `FC(F)(F)c1cc(-c2ccco2)nc(NCc2ccc(Cl)cc2)n1` end up with in this test? inactive

What classification did `CSc1nc2nc3c(c(=O)n2[nH]1)CCC3` end up with in this test? inactive

What classification did NC(=O)COc1ccc(/C=N/NC(=O)C2CCCN2S(=O)(=O)c2ccc(Cl)cc2)cc1 (configuration not stated) end up with in this test? inactive

What classification did `COc1cc(CC(=O)NCc2cccs2)cc(OC)c1OC` end up with in this test? inactive

What classification did `C=CCNC(=S)NNc1ncnc2sc3c(c12)CC(C)(C)OC3` end up with in this test? inactive

What classification did `Cc1cc(C)n(-c2cc(Oc3ccccc3)ncn2)n1` end up with in this test? inactive

What classification did `O=C(Nc1ccccc1)c1ccc2c(c1)OCO2` end up with in this test? inactive

What classification did `Cc1cc(C)c2c(-n3cccc3)c(NC(=O)OCc3ccccc3)sc2n1` end up with in this test? inactive

What classification did O=C(Nc1cc2c3c(c1)C1CCCC1CN3CC1CCCC21)c1ccc([N+](=O)[O-])cc1 (configuration not stated) end up with in this test? inactive

What classification did `CCc1nnc(NC(=O)CSc2nc3ccccc3c(=O)n2CCCOC)s1` end up with in this test? inactive

What classification did `CCCCCCC12CCC(C(=O)O)(CC1)CC2` end up with in this test? inactive

What classification did `S=C(NCCC1=CCCCC1)Nc1ccccc1` end up with in this test? inactive

What classification did `CCC(=O)Nc1cccc(NC(=O)c2cccnc2)c1` end up with in this test? inactive

What classification did `Cc1ccc(F)cc1NC(=O)c1ccc2c(c1)OCO2` end up with in this test? active

What classification did `CCn1c(SCC(=O)Nc2ccc(S(=O)(=O)Nc3onc(C)c3C)cc2)nnc1-c1ccccc1` end up with in this test? inactive

What classification did `COc1cccc(NC(=O)Cc2ccc(C)cc2)c1` end up with in this test? inactive

What classification did COc1ccc(NC(=O)/C(Cl)=C(/Cl)S(=O)Cc2ccc(C)cc2)cn1 (configuration not stated) end up with in this test? active

What classification did `CCOc1cccc(C(=O)Nc2nnc(-c3cccs3)s2)c1` end up with in this test? inactive

What classification did `COc1ccc(CC(=O)Nc2ccc(-c3nnc(-c4ccc(C)cc4)o3)cc2)cc1` end up with in this test? inactive

What classification did CCCOC(=O)c1[nH]c2c(c1C)C(=O)CC(c1cccs1)C2 (configuration not stated) end up with in this test? active

What classification did `Cc1ccc(C)c(N2C(=O)CS/C2=N\NC(=O)c2ccccc2Cl)c1` end up with in this test? inactive

What classification did `COc1ccc(N2CCN(Cc3cc(=O)oc4ccc5ccccc5c34)CC2)cc1` end up with in this test? inactive

What classification did `CC(=O)c1cn(CCCCCCCCCCn2cc(C(C)=O)c(=O)[nH]c2=O)c(=O)[nH]c1=O` end up with in this test? inactive

What classification did `Cc1cc2cc3c(cc2nc1SCC(=O)Nc1c(C)cccc1C)CCC3` end up with in this test? inactive

What classification did CC(=O)c1cccc(NC(=O)C2CCCN2S(=O)(=O)c2cccc3nsnc23)c1 (configuration not stated) end up with in this test? inactive

What classification did CC1CC(C)CN(S(=O)(=O)c2cccc(C(=O)N3C(=O)c4cccc(N)c4C3=O)c2)C1 (configuration not stated) end up with in this test? inactive
